Tested on: Aeromonas hydriphila HG3 (RV 5.1)
Details: Microbial Toxic Concentration; incubation time 16 h
Counter-ions that a name gives are not always drawn.
# Toxic fingerprint: MTC value for microorganism no. 6 >= 1 gives Satisfied, anything below gives Not satisfied

In plain terms: is recorded Toxic fingerprint: MTC value for microorganism no. 6 at least 1 for [Cl-].[Cl-].[Mg+2] [Magnesium Chloride] ?
Satisfied

In plain terms: is recorded Toxic fingerprint: MTC value for microorganism no. 6 at least 1 for O=[N+]([O-])[O-].O=[N+]([O-])[O-].[Ba+2] [Barium nitrate] ?
Not satisfied

In plain terms: is recorded Toxic fingerprint: MTC value for microorganism no. 6 at least 1 for [Cl-].[K+] [Potassium Chloride] ?
Satisfied

In plain terms: is recorded Toxic fingerprint: MTC value for microorganism no. 6 at least 1 for Cn1c(=O)c2c(ncn2C)n(C)c1=O [Caffeine] ?
Satisfied

In plain terms: is recorded Toxic fingerprint: MTC value for microorganism no. 6 at least 1 for COc1ccc(CCN(C)CCCC(C#N)(c2ccc(OC)c(OC)c2)C(C)C)cc1OC (centres unmarked) [Verapamil HCl] ?
Satisfied

In plain terms: is recorded Toxic fingerprint: MTC value for microorganism no. 6 at least 1 for CSc1ccc2c(c1)N(CCC1CCCCN1C)c1ccccc1S2 (centres unmarked) [Tioridazin HCl] ?
Not satisfied

In plain terms: is recorded Toxic fingerprint: MTC value for microorganism no. 6 at least 1 for C[C@H]1O[C@@H](O[C@H]2[C@@H](O)C[C@H](O[C@H]3[C@@H](O)C[C@H](O[C@H]4CC[C@@]5(C)[C@H](CC[C@@H]6[C@@H]5C[C@@H](O)[C@]5(C)[C@@H](C7=CC(=O)OC7)CC[C@]65O)C4)O[C@@H]3C)O[C@@H]2C)C[C@H](O)[C@@H]1O [Digoxin] ?
Not satisfied

In plain terms: is recorded Toxic fingerprint: MTC value for microorganism no. 6 at least 1 for [N-]=[N+]=[N-] [Sodium Azide] ?
Not satisfied
